# System: L. donovani promastigotes
# Protocol: L. donovani promastigote drug sensitivity assay
# Format: cell-based, Leishmania donovani
# Measurement conditions: Leishmania donovani; L. donovani promastigote; weighted mean, n ≥ 3; read-out: Mean compound 1 EC50 ± SD
Readout: pEC50
Scale: pEC50 equals -log10([C]), with [C] in mol/L.

Respond only with pEC50 recorded for COc1ccc(NS(=O)(=O)c2cc(-c3cc(C)n[nH]3)ccc2C)cc1OC [Compound 1] 7.00

###

# Tested on: T. cruzi epimastigotes
# Protocol: T. cruzi epimastigote drug sensitivity assay (resazurin)
# Format: cell-based, Trypanosoma cruzi
# Measurement conditions: Trypanosoma cruzi, read-out: Mean EC50 ± SD, cell line RES II (compound 1-resistant, β5 D225N)
Measured pEC50, listed per entry for reference.
Scale: pEC50 equals -log10([C]), with [C] in mol/L.

>>> recorded_number("CC(C)C[C@H](NC(=O)[C@H](Cc1ccccc1)NC(=O)c1cnccn1)B(O)O")
6.52
>>> recorded_number("COc1ccc(NS(=O)(=O)c2cc(-c3cc(C)n[nH]3)ccc2C)cc1OC")
4.27

Here's the next entry for you.
Using T. cruzi epimastigotes as the test system, report measured pEC50 of `O=C(Nc1ccc(F)c(-c2cn3nc(-c4ccccc4)cnc3n2)c1)N1CCCC1` . 5.30

###

# Test system: T. cruzi amastigotes within Vero cells
# Protocol: Drug sensitivity assay against T. cruzi-infected Vero cells (intracellular amastigotes)
# Format: cell-based, Trypanosoma cruzi
# Measurement conditions: Trypanosoma cruzi, Vero, in Vero cells; cell line RES 1; read-out: EC50 values
# Protocol: The clonal Leishmania donovani cell line LdBOB (derived from MHOM/SD/62/1S-CL2D) was grown as either promastigotes or axenic amastigotes in media specific for each developmental stage, as previously described ([32]). T. cruzi epimastigotes from the Silvio strain (MHOM/BR/78/Silvio; clone X10/7A [33]) were grown at 28°C in RTH/FBS (RPMI 1640 medium supplemented with Trypticase, hemin, HEPES, and 10% heat-inactivated fetal calf serum (FCS) [Fisher Scientific]) ([34]). […]
Measured EC50, listed per entry for reference.
Field format: number, assumed µM, no unit text.

// worked examples, EC50 included
>>> recorded_number("Cc1nc(C)c(C(=O)Nc2ccc(F)c(-c3nc4ncc(-c5ccccn5)cn4n3)c2)o1")
16
>>> recorded_number("CSc1ccc(OCc2ncc([N+](=O)[O-])n2C)cc1")
8

Here's the next entry for you.
Respond only with EC50 recorded for `COc1ccc(NS(=O)(=O)c2cc(-c3cc(C)n[nH]3)ccc2C)cc1OC` 10

###

# System: T. cruzi epimastigotes
# Protocol: T. cruzi epimastigote drug sensitivity assay (resazurin)
# Assay type: cell-based, Trypanosoma cruzi
# Measurement conditions: Trypanosoma cruzi, read-out: Mean EC50 ± SD, cell line Wild type
# Description: To examine the effects of test compounds on the growth of T. cruzi epimastigotes, mid-log-phase parasites were seeded into 96-well plates at a cell density of 5 × 10^5 cells ml^−1. Cells were exposed to test compounds over a range of concentrations (2-fold serial dilutions). Cells were incubated for 4 days, and then 20 μl of 2.5 mM resazurin was added to each well, before measuring the fluorescence (excitation, 528 nm; emission, 590 nm), following a further 24 h of incubation. […]
Readout: pEC50
Scale: pEC50 equals -log10([C]), with [C] in mol/L.

Respond only with pEC50 recorded for `CC(C)C[C@H](NC(=O)[C@H](Cc1ccccc1)NC(=O)c1cnccn1)B(O)O` 6.70
